protocol_summary: Components of the Cytosolic LPS Sensing Pathway: Gene Identification via Genome-wide siRNA Screen;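 note: robust z of the log signal after scaling to non-targeting control siRNA wells of the plate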
condition_set: RAW264.7 macrophages, IL-1a HTRF, actives lie on both sides, screened at 100 nM (by protocol), cells primed 5 h with Pam3CSK4 first
Out of some 53,000 sequences screened, about 3,700 (7%) were called active. Shown is part of a subset that was picked to be rich in actives.
reported_metric: z-score
Quick one: just the number, no unit, thanks!

Below, 4 sequences whose answers are already recorded.
{"columns": ["sequence_data", "z-score"],
 "data": [
  ["CCGUCCGAUGAAAAACAGGTT against Prm1", -0.128],
  ["GGUUUGGUUGAAAUUGAACTT against Smc5", -1.16],
  ["GGAGGCCAUCACACUUAGATT against 4933421I07Rik", -2.27],
  ["CCCAUUCACUCAUCACAUGTT against F630003A18Rik", -1.4]
]}

Lookup: Can you look up the measured z-score of GCUUCAUCUUACCUACUCATT against Synb for me?
Found: -0.825

Lookup: Can you look up the measured z-score of GGCACUUCUUAAUCCCACATT against Nfe2 for me?
Found: -2.41
